Numbers sourced from the supplement of paper PMC11417369.

System: PfAP2-LT AP2 domain (GST-tagged)
Experiment: gcPBM binding intensity (ln(normalized median fluorescence intensity)); higher = stronger DNA binding
Whole data set: some 25,000 sequences, median “ln(normalized median fluorescence intensity)” near 8.9, cut for the highest 2% near 10. This excerpt belongs to a sample that is enriched for the highest values.
recorded_endpoint: gcPBM binding intensity (ln)

INSERT INTO measurements (chain, recorded_endpoint, data_value) VALUES
  ('TACTTATTGTGATACTTATATTATTTTATGATTAAA [XGTACX_negctrl_site353]', 'gcPBM binding intensity (ln)', 8.5),
  ('ATATACATATTCTTGTGTACATAAAAATTTATATAT [XGTACX_site8726]', 'gcPBM binding intensity (ln)', 8.74),
  ('AAAAAAAAAAAACACACACACACATACAAAATATAT [CACACA_site1448]', 'gcPBM binding intensity (ln)', 10),
  ('CACCCCCACAGACACACACACACACCCACATATATA [CACACA_site365]', 'gcPBM binding intensity (ln)', 10.5),
  ('TATATTATTAATTAGGGTACAAAAAAAAAATTTTTT [XGTACX_site7762]', 'gcPBM binding intensity (ln)', 8.3),
  ('GATACAAAATGGGGAACACACACATATATATATATA [CACACA_site9278]', 'gcPBM binding intensity (ln)', 10.1),
  ('TATACATACAGACCCACACACAAAAAAAAAAAAAAA [CACACA_site6536]', 'gcPBM binding intensity (ln)', 9.35),
  ('TACATATACAGACACACACACACACCCCCACAAAAA [CACACA_site495]', 'gcPBM binding intensity (ln)', 10.4),
  ('AGTCTTTTACATTGCACACACATTTCTTTCCTTTTG [CACACA_site2988]', 'gcPBM binding intensity (ln)', 9.61);
